- systemTested: Carboxy-terminal domain RNA polymerase II polypeptide A small phosphatase 1 (Homo sapiens, UniProt Q9GZU7)
- Sequence (Q9GZU7 whole entry): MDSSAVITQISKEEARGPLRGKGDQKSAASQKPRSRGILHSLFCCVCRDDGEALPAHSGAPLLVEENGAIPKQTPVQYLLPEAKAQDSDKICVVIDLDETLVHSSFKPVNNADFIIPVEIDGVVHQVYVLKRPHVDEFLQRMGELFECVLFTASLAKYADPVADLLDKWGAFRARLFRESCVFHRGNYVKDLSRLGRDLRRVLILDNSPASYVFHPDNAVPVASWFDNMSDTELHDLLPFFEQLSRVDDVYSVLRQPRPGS
- assaySummary: inhibitors of CTDSP1, concentration-response testing, biochemical assay, absorbance-based, actives from ultra-high-throughput screening (AID 540297)
- Assay type: functional
Calls of active or inactive are those of the source. Cut-off read from the data, not from the text of the source: actives have a measured IC50 and inactives only a lower limit.
Each record here notes measured IC50.

input: Which IC50 is reported for this compound? "Cc1ccc(CCNC(=O)c2ccc3nc4ccccc4c(=O)n3c2)cc1"
output: 14.2 µM (active)

input: // lookup IC50 for "Nc1ccc(C(=O)Nc2ccc3c(O)cc(S(=O)(=O)O)cc3c2)cc1"
output: 4.61 µM (active)
